- measured on: ALK tyrosine kinase receptor (Homo sapiens)
- Sequence (Q9UM73 whole entry): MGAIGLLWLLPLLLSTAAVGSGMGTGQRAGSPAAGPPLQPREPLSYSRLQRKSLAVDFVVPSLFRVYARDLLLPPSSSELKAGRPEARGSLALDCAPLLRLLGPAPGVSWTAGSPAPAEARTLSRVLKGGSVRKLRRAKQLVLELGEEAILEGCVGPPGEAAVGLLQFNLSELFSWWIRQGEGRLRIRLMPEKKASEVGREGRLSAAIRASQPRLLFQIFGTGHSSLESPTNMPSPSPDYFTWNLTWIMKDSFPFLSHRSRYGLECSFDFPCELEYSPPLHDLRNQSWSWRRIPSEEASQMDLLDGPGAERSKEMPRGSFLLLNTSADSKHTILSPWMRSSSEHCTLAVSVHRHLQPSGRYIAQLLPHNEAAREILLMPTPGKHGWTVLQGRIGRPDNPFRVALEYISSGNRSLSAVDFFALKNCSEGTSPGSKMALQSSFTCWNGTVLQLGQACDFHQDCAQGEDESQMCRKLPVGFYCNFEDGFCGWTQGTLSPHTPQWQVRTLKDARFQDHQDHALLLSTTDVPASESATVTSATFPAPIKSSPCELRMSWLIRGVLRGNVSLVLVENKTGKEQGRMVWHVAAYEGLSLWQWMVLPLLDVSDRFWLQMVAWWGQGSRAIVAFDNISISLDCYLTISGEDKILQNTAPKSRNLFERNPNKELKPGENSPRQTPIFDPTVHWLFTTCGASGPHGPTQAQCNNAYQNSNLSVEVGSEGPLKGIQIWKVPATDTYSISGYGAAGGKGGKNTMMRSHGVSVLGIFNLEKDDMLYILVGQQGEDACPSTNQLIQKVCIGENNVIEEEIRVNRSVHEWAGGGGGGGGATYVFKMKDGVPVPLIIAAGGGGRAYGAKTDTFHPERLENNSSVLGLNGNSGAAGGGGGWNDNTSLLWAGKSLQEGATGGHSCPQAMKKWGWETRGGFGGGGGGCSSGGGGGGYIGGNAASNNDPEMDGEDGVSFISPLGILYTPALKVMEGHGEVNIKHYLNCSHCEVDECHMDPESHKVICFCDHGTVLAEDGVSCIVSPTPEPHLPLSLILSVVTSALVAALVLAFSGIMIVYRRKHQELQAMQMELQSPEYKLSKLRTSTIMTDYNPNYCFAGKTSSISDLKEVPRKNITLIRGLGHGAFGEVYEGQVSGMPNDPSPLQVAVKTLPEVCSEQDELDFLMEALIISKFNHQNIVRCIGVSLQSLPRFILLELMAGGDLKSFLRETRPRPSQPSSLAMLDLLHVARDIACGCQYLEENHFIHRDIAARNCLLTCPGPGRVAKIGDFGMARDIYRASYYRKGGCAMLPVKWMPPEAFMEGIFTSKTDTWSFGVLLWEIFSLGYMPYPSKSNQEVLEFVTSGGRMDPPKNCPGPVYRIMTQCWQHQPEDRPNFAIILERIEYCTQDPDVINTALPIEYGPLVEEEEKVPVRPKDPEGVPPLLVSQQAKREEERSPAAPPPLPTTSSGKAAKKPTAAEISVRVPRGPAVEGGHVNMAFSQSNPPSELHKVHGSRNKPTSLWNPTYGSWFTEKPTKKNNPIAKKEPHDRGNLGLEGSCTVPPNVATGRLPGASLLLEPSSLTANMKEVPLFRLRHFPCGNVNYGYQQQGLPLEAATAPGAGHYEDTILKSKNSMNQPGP
- protocol notes: Inhibition of recombinant human GST-tagged ALK expressed in baculovirus expression system by Z'LYTE assay
pIC50: −log10 of the molar value.

molecule | pIC50
Cc1ccc(CNC(=O)c2cccc(C(C)Oc3ccnc(Nc4nc5ccccc5[nH]4)c3)c2)cc1 (stereo not given) | < 5.00
COc1ccc(CNC(=O)c2cccc(C(C)Oc3ccnc(Nc4cnn(C5CCNCC5)c4)c3)c2)cc1OC (stereo not given) | 5.35
CC(Oc1ccnc(Nc2cnn(C)c2)c1)c1cccc(C(=O)NCc2cc(C(F)(F)F)cc(C(F)(F)F)c2)c1 (stereo not given) | < 5.00
Cc1ccc(CNC(=O)c2cccc(C(C)Oc3cccnc3Nc3cnn(CC#N)c3)c2)cc1 (stereo not given) | < 5.00
CC(Oc1cccnc1Nc1cnn(C)c1)c1cccc(C(=O)NCc2ccccc2S(=O)(=O)C(C)C)c1 (stereo not given) | < 5.00
Cc1ccc(CNC(=O)c2cccc(C(C)Oc3cccnc3Nc3cnn(CC(C)(C)O)c3)c2)cc1 (stereo not given) | < 5.00
Cc1ccc(CNC(=O)c2cccc(C(C)Oc3cccnc3Nc3ncccn3)c2)cc1 (stereo not given) | < 5.00
Cc1ccc(CNC(=O)c2cccc(C(C)Oc3ccnc(Nc4cnn(C5CCN(C)CC5)c4)c3)c2)cc1 (stereo not given) | 5.51
Cc1ccc(CNC(=O)c2cccc(C(C)Oc3ccnc(Nc4cnn(CC(C)(C)O)c4)c3)c2)cc1 (stereo not given) | < 5.00
Cc1ccc(CNC(=O)c2cccc(C(C)Oc3cccnc3Nc3ncc(C)s3)c2)cc1 (stereo not given) | < 5.00

---

- Tested on: HCC78
- protocol notes: Antiproliferative activity against human HCC78 cells after 48 hrs by MTT assay
- recorded conditions: HCC78, 48 h
property measured: log10(IC50) (log10 of the value in µM)

molecule | measured on | log10(IC50)
COc1ccc(CNC(=O)c2cccc(C(C)Oc3ccnc(Nc4cnn(C)c4)c3)c2)cc1OC (stereo not given) | HCC78 | 1.88
CC(Oc1cccnc1Nc1cnn(C)c1)c1cccc(C(=O)NCc2ccc(F)cc2)c1 (stereo not given) | HCC78 | 1.84
Cc1ccc(CNC(=O)c2cccc(C(C)Oc3cccnc3Nn3cnnc3)c2)cc1 (stereo not given) | HCC78 | 0.97
CC(Oc1ccnc(Nc2cnn(C3CCN(C)CC3)c2)c1)c1cccc(C(=O)NCc2ccc(Cl)c(C(F)(F)F)c2)c1 (stereo not given) | HCC78 | 0.86
CC(Oc1cccnc1Nc1cnn(C)c1)c1cccc(C(=O)NCc2ccc(OC(F)(F)F)cc2)c1 (stereo not given) | HCC78 | 1.87

---

Known pIC50 of a selection of molecules
- Test system: HCC78
- protocol notes: Antiproliferative activity against human HCC78 cells after 48 hrs by MTT assay
- recorded conditions: HCC78, 48 h
pIC50: −log10 of the molar value.

molecule | comparison sign | pIC50
Cc1ccc(CNC(=O)c2cccc(C(C)Oc3cccnc3Nc3cnn(CC#N)c3)c2)cc1 (centres undefined) | = | 4.24
Cc1ccc(CNC(=O)c2cccc(C(C)Oc3ccnc(Nc4cnn(C5CCN(C)CC5)c4)c3)c2)cc1 (centres undefined) | = | 5.09
Cc1ccc(CNC(=O)c2cccc(C(C)Oc3ccnc(Nc4nc5ccccc5[nH]4)c3)c2)cc1 (centres undefined) | < | 4.00
Cc1ccc(CNC(=O)c2cccc(C(C)Oc3ccnc(NN4CCCCC4)c3)c2)cc1 (centres undefined) | = | 4.61
CC(Oc1cccnc1Nc1cnn(C)c1)c1cccc(C(=O)NCc2ccc(F)c(Cl)c2)c1 (centres undefined) | = | 5.11
Cc1ccc(CNC(=O)c2cccc(C(C)Oc3cccnc3Nc3ncccn3)c2)cc1 (centres undefined) | < | 4.00
COc1ccc(CNC(=O)c2cccc(C(C)Oc3ccnc(Nc4cnn(C5CCN(C)CC5)c4)c3)c2)cc1OC (centres undefined) | = | 5.05
CC(Oc1ccnc(Nc2cnn(C)c2)c1)c1cccc(C(=O)NCc2ccc(C#N)cc2)c1 (centres undefined) | = | 5.06
Cc1ccc(CNC(=O)c2cccc(C(C)Oc3cccnc3Nc3nccs3)c2)cc1 (centres undefined) | = | 4.57
